Answer each item with its documented IC50.
# target_or_system: PARG (Homo sapiens, UniProt Q86W56)
# Sequence (Q86W56 whole entry): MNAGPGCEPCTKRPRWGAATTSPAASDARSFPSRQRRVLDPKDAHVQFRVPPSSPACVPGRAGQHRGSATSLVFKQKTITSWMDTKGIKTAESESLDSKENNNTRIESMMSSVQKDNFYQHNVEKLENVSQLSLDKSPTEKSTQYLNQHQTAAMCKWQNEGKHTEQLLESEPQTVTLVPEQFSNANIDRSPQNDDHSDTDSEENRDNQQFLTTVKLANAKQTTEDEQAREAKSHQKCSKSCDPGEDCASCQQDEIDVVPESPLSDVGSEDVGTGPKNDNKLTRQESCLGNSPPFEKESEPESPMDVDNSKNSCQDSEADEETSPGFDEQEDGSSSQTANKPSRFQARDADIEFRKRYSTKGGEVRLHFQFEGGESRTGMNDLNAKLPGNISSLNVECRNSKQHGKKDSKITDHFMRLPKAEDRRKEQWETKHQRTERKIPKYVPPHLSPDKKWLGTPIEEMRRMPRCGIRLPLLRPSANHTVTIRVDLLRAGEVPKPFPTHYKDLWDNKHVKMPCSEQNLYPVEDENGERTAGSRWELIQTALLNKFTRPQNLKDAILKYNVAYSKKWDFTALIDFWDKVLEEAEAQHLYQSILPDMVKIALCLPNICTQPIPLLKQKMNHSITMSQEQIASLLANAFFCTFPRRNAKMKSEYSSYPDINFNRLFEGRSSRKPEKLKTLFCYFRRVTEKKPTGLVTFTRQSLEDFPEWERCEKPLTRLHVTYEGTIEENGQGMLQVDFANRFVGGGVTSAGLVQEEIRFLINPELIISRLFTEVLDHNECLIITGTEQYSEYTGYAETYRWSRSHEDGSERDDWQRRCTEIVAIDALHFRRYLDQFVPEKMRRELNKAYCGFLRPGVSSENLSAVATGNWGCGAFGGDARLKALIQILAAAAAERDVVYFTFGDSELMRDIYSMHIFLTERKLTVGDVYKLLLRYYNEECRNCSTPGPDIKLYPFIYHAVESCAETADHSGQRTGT
# test_details: Inhibition of PARG cellular assay (PAR foci in HeLa cells after MMS);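 further: IC50 from mean nuclear PAR foci intensity not percent-positive cells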
# Assay type: cell-based
# Design: endogenous in cells; host or cells: HeLa
# assay_conditions: compound 1 h then MMS 1 h

Use these answered entries as a reference point.
compound	IC50
CC1(C(=O)N2CCN(c3cc(S(=O)(=O)NC4(C#N)CC4)cc4c3cnn4-c3nnc(C(F)F)s3)CC2)CCC1	≤ 100 nM
N#CC1(NS(=O)(=O)c2cc(N3CCC4(CCOC4)CC3)c3cnn(-c4nnc(C(F)F)s4)c3c2)CC1	300 to 1000 nM
CCC(C)C(=O)N1CCN(c2cc(S(=O)(=O)NC3(C#N)CC3)cc3c2cnn3-c2nnc(C(F)F)s2)C[C@H]1C (stereo partly shown)	100 to 300 nM

Please state IC50 for every compound in the list that follows.
1. CN(C)C(=O)C1CCN(c2cc(S(=O)(=O)NC3(C#N)CC3)cc3c2cnn3-c2nnc(C(F)F)s2)CC1
2. N#CC1(NS(=O)(=O)c2cc(C3=CCC4(CC3)COC4)c3cnn(-c4nnc(C(F)F)s4)c3c2)CC1
3. Cc1cccnc1N1CCN(c2cc(S(=O)(=O)NC3(C#N)CC3)cc3c2cnn3-c2nnc(C(F)F)s2)CC1

OUT:
1: 300 to 1000 nM; 2: 300 to 1000 nM; 3: 100 to 300 nM

IN: Name the reported IC50 value associated with the compound C[C@@H]1CN(c2cc(S(=O)(=O)NC3(C#N)CC3)cc3c2cnn3-c2nnc(C(F)F)s2)CCN1C(=O)C1(C)CCC1
OUT: ≤ 100 nM

---

# target_or_system: PARG (Homo sapiens)
# test_details: Inhibition of PARG cellular assay (PAR foci in HeLa cells after MMS)
# Format: cell-based
# Set-up: endogenous in cells; host or cells: HeLa
# assay_conditions: compound 1 h then MMS 1 h
Would you kindly list IC50 for each of these compounds?

compound	IC50
N#CC1(NS(=O)(=O)c2cc(N3CCN(c4ccccn4)CC3)c3cnn(-c4nnc(C(F)F)s4)c3c2)CC1 [Example 93]	300 to 1000 nM
N#CC1(NS(=O)(=O)c2cc(N3CCC4(CCOCC4)CC3)c3cnn(-c4nnc(C(F)F)s4)c3c2)CC1 [Example 30]	1000 to 10000 nM
N#CC1(NS(=O)(=O)c2cc(N3CCC4(CC3)COC4)c3cnn(-c4nnc(C(F)F)s4)c3c2)CC1 [Example 25]	≤ 100 nM
N#CC1(NS(=O)(=O)c2cc(N3CCN(c4cccnn4)CC3)c3cnn(-c4nnc(C(F)F)s4)c3c2)CC1 [Example 95]	100 to 300 nM
N#CC1(NS(=O)(=O)c2cc(N3CCN4C(=O)CC[C@H]4C3)c3cnn(-c4nnc(C(F)F)s4)c3c2)CC1 [Example 59]	300 to 1000 nM

List reported IC50 for each of these compounds:
1. CN(C)C(=O)N1CCN(c2cc(S(=O)(=O)NC3(C#N)CC3)cc3c2c(Cl)nn3-c2nnc(C(F)F)s2)CC1 [Example 115]
2. N#CC1(NS(=O)(=O)c2cc(N3CCC(F)CC3)c3cnn(-c4nnc(C(F)F)s4)c3c2)CC1 [Example 104]
3. N#CC1(NS(=O)(=O)c2cc(N3CCC4(CCO4)CC3)c3cnn(-c4nnc(C(F)F)s4)c3c2)CC1 [Example 41]
4. N#CC1(NS(=O)(=O)c2cc(N3CCCC3)c3cnn(-c4nnc(C(F)F)s4)c3c2)CC1 [Example 101]
5. Cc1nnc(-n2ncc3c(N4CCN(C(=O)C(C)C)CC4)cc(S(=O)(=O)NC4(C#N)CC4)cc32)s1 [Example 97]
6. N#CC1(NS(=O)(=O)c2cc(-c3ccncn3)c3cnn(-c4nnc(C(F)F)s4)c3c2)CC1 [Example 15]
7. CC(C)C(=O)N1CCN(c2cc(S(=O)(=O)NC3(C#N)CC3)cc3c2cnn3-c2nnc(C(F)F)s2)C[C@@H]1C [Example 88]
8. CC(C)C(=O)N1CCN(c2cc(S(=O)(=O)NC3(C#N)CC3)cc3c2ccn3-c2nnc(C(F)F)s2)CC1 [Example 28]

OUT:
["300 to 1000 nM", "300 to 1000 nM", "300 to 1000 nM", "1000 to 10000 nM", "100 to 300 nM", "300 to 1000 nM", "≤ 100 nM", "≤ 100 nM"]

Would you be so kind as to report IC50 for each listed record?
1. N#CC1(NS(=O)(=O)c2cc(N3CCC(CO)CC3)c3cnn(-c4nnc(C(F)F)s4)c3c2)CC1 [Example 47]
2. Cn1cnc(-c2cc(S(=O)(=O)NC3(C#N)CC3)cc3c2cnn3-c2nnc(C(F)F)s2)c1 [Example 12]
3. CN1CCC2(CCN(c3cc(S(=O)(=O)NC4(C#N)CC4)cc4c3cnn4-c3nnc(C(F)F)s3)CC2)C1 [Example 46]
4. CC(C)C(=O)N1CCN(c2cc(S(=O)(=O)NC(C)(C)C)cc3c2cnn3-c2nnc(C(F)F)s2)CC1 [Example 99]
5. N#CC1(NS(=O)(=O)c2cc(-c3cscn3)c3cnn(-c4nnc(C(F)F)s4)c3c2)CC1 [Example 13]
6. N#CC1(NS(=O)(=O)c2cc(N3CCN(C(=O)C4CCCC4)CC3)c3cnn(-c4nnc(C(F)F)s4)c3c2)CC1 [Example 66]

OUT:
1. 300 to 1000 nM
2. 300 to 1000 nM
3. 1000 to 10000 nM
4. 1000 to 10000 nM
5. 300 to 1000 nM
6. ≤ 100 nM

Batch: IC50 for all items listed.
1. CN1CC[C@H](C(=O)N2CCN(c3cc(S(=O)(=O)NC4(C#N)CC4)cc4c3cnn4-c3nnc(C(F)F)s3)CC2)C1 [Example 68]
2. N#CC1(NS(=O)(=O)c2cc(N3CCN(C(=O)C4CC4)CC3)c3cnn(-c4nnc(C(F)F)s4)c3c2)CC1 [Example 80]
3. CN(C)C(=O)N1CCN(c2cc(S(=O)(=O)NC3(C#N)CC3)cc3c2cnn3-c2nnc(C(F)F)s2)CC1 [Example 43]
4. N#CC1(NS(=O)(=O)c2cc(N3CCN(C(=O)N4CCCC4)CC3)c3cnn(-c4nnc(C(F)F)s4)c3c2)CC1 [Example 57]

OUT:
1. 1000 to 10000 nM
2. ≤ 100 nM
3. ≤ 100 nM
4. ≤ 100 nM

---

# target_or_system: PARG (Homo sapiens)
# test_details: Inhibition of PARG enzymatic assay (TR-FRET enzymatic IC50 assay)
# Type: biochemical
# Set-up: purchased Peak Proteins
# assay_conditions: hPARG 250 pM, biotinylated-PARylated PARP substrate 30 nM
pIC50: −log10 of the molar value.
recorded_endpoint: pIC50

Examples from the recorded data:
N#CC1(NS(=O)(=O)c2cc(-c3ccccn3)c3cnn(-c4nnc(C(F)F)s4)c3c2)CC1 6.00 to 6.52
N#CC1(NS(=O)(=O)c2cc(N3CCC4(CCOCC4)CC3)c3cnn(-c4nnc(C(F)F)s4)c3c2)CC1 6.00 to 6.52
N#CC1(NS(=O)(=O)c2cc(-c3cccnn3)c3cnn(-c4nnc(C(F)F)s4)c3c2)CC1 6.52 to 7.00

Please report pIC50 for every entry that follows.
1. CC(C)NS(=O)(=O)c1cc(N2CCN(C(=O)C(C)C)CC2)c2cnn(-c3nnc(C(F)F)s3)c2c1
2. CC(C)C(=O)N1C2CC1CN(c1cc(S(=O)(=O)NC3(C#N)CC3)cc3c1cnn3-c1nnc(C(F)F)s1)C2
3. N#CC1(NS(=O)(=O)c2cc(-c3ccccc3)c3cnn(-c4nnc(C(F)F)s4)c3c2)CC1
4. N#CC1(NS(=O)(=O)c2cc(N3CCC4(CCOC4)CC3)c3cnn(-c4nnc(C(F)F)s4)c3c2)CC1
5. N#CC1(NS(=O)(=O)c2cc(N3CCCC3)c3cnn(-c4nnc(C(F)F)s4)c3c2)CC1
6. N#CC1(NS(=O)(=O)c2cc(C3CCC4(CC3)COC4)c3cnn(-c4nnc(C(F)F)s4)c3c2)CC1

OUT:
1. 6.52 to 7.00
2. 5.00 to 6.00
3. 5.00 to 6.00
4. 6.52 to 7.00
5. 5.00 to 6.00
6. 6.52 to 7.00

---

# target_or_system: PARG (Homo sapiens, UniProt Q86W56)
# test_details: Inhibition of PARG enzymatic assay (TR-FRET enzymatic IC50 assay)
# Format: biochemical
# Design: purchased Peak Proteins
# assay_conditions: hPARG 250 pM, biotinylated-PARylated PARP substrate 30 nM
pIC50: −log10 of the molar value.
For each entry below, report its pIC50 value.

compound	pIC50
N#CC1(NS(=O)(=O)c2cc(N3CC[C@H]4COC[C@H]4C3)c3cnn(-c4nnc(C(F)F)s4)c3c2)CC1 (relative stereo)	6.00 to 6.52
CN1CCCN(c2cc(S(=O)(=O)NC3(C#N)CC3)cc3c2cnn3-c2nnc(C(F)F)s2)CC1	≥ 7.00
CC1(C(=O)N2CCN(c3cc(S(=O)(=O)NC4(C#N)CC4)cc4c3cnn4-c3nnc(C(F)F)s3)CC2)CC1	≥ 7.00
N#CC1(NS(=O)(=O)c2cc(N3CCCC4(COC4)C3)c3cnn(-c4nnc(C(F)F)s4)c3c2)CC1	6.00 to 6.52
CCN(C)C(=O)N1CCN(c2cc(S(=O)(=O)NC3(C#N)CC3)cc3c2cnn3-c2nnc(C(F)F)s2)CC1	≥ 7.00

// for each compound in input: emit pIC50
1. N#CC1(NS(=O)(=O)c2cc(N3CCN(C(=O)N4CCC4)CC3)c3cnn(-c4nnc(C(F)F)s4)c3c2)CC1
2. N#CC1(NS(=O)(=O)c2cc(N3CCN(C(=O)N4CCCC4)CC3)c3cnn(-c4nnc(C(F)F)s4)c3c2)CC1

OUT:
1: ≥ 7.00; 2: ≥ 7.00
